experimentalTarget: T1, 2Ig-B7H3 without Fc fusion (human, UniProt Q5ZPR3-2 29-245, limits assumed)
T1 construct: also called 2IgB7H3 (R&D)
T1 sequence (looked up): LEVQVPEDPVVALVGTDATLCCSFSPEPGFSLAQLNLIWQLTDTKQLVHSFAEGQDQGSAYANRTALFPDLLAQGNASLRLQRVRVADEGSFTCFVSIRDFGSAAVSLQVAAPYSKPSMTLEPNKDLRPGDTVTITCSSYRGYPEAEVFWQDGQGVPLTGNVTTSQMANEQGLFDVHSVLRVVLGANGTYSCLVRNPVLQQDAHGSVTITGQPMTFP
assayExplanation: SPR, IgG on 2Ig-B7-H3 without Fc fusion
assayMetric: pKd
Hey, just a heads up that pKd is the negative log base 10 of the concentration in molar.

Answered examples (4):
binder	obsValue
hu8H9 H3L3 IgG1 (antibody, V domains shown) VH: QVQLVQSGAEVVKPGASVKLSCKASGYTFTNYDINWVRQRPEQGLEWIGWIFPGDGSTQYNEKFKGKATLTTDTSTSTAYMELSSLRSEDTAVYFCARQTTATWFAYWGQGTLVTVSS VL: EIVMTQSPATLSVSPGERVSLSCRASQSISDYLHWYQQKSHESPRLLIKYASQSISGIPARFSGSGSGSEFTLTINSVEPEDVGVYYCQNGHSFPLTFGQGTKLELKR	7.35
ch8H9 6.1 IgG (ch8H9 + 6 affinity maturation mutations) (antibody, V domains shown) VH: QVQLQQSGAELVKPGASVKLSCKTSGYTFTNYDINWVRQRPGQGLEWIGWIFPGDDSTQYNEKFKGKATLTTDTSSSTAYMQLSRLTSEDSAVYFCARQTTGTWFAYWGQGTLVTVSA VL: DIVMTQSPATLSVTPGDRVTLSCRASQSISDYLYWYQQKSHESPRLLIKYASQSISGIPSRFSGSGSGSDFTLSINSVEPEDVGVYYCQNGHSFPLTFGAGTKLELKR	9.21
mouse/human chimeric 8H9 (ch8H9) IgG1 (antibody, V domains shown) VH: QVQLQQSGAELVKPGASVKLSCKASGYTFTNYDINWVRQRPEQGLEWIGWIFPGDGSTQYNEKFKGKATLTTDTSSSTAYMQLSRLTSEDSAVYFCARQTTATWFAYWGQGTLVTVSA VL: DIVMTQSPATLSVTPGDRVSLSCRASQSISDYLHWYQQKSHESPRLLIKYASQSISGIPSRFSGSGSGSDFTLSINSVEPEDVGVYYCQNGHSFPLTFGAGTKLELKR	8.57
murine 8H9 (m8H9) IgG1 monoclonal antibody (antibody, V domains shown, 131I-labelled in the LAN-1 immunoreactivity assay; the label is not carried by the letters., also called MAb 8H9) VH: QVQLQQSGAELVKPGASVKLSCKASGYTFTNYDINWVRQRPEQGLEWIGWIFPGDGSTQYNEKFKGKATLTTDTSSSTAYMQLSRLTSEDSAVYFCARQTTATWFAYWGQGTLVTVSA VL: DIVMTQSPATLSVTPGDRVSLSCRASQSISDYLHWYQQKSHESPRLLIKYASQSISGIPSRFSGSGSGSDFTLSINSVEPEDVGVYYCQNGHSFPLTFGAGTKLELK	9.09

From here, focus on the item given below.
I'd like to know its pKd. The binder in question is hu8H9 3.1 IgG1 (antibody, V domains shown, also called clone 3.1) VH: QVQLVQSGAEVVKPGASVKLSCKTSGYTFTNYDINWVRQRPGQGLEWIGWIFPGDDSTQYNEKFKGKATLTTDTSTSTAYMELSSLRSEDTAVYFCARQTTGTWFAYWGQGTLVTVSS VL: EIVMTQSPATLSVSPGERVTLSCRASQSISDYLYWYQQKSHESPRLLIKYASQSISGIPARFSGSGSGSEFTLTINSVEPEDVGVYYCQNGHSFPLTFGQGTKLELKR
8.30
